Tested on: T-47D breast
ASSAY_TEXT: NCI tumour cell line growth inhibition, 48 h
So I've got a bunch of compounds here, and I need their TGI values.

[in] So what's the measured TGI for this one? C#Cc1cc(Br)c(OC(=O)C(C)(C)C)c(-c2cc(C#C)cc(Br)c2OC(=O)C(C)(C)C)c1
[out] > 100 µM

[in] Name the reported TGI value associated with the compound CN(Cc1cc(Br)cc(Br)c1O)Cc1c(O)ccc2ccccc12
[out] 43.8 µM

[in] Which TGI value belongs to CC1CN(c2cc3c(cc2F)c(=O)c(C(=O)O)cn3-c2ccc(F)cn2)CC(C)N1 (stereo unspecified) ?
[out] > 100 µM

[in] Looking for the measured TGI of N#CC(C#N)N=Nc1ccc(-c2nc3ccccc3o2)cc1 , can you help?
[out] 25.2 µM

[in] Fill blank: measured TGI of the compound Clc1ccc(OCc2nnc3sc(-c4ccc(-c5ccc(Cl)cc5Cl)o4)nn23)cc1 is ____.
[out] > 100 µM

[in] Consider the compound Oc1c(Br)cc(/C=C/c2cccc(/C=C/c3cc(Br)c(O)c(Br)c3)n2)cc1Br and give its measured TGI.
[out] 31.4 µM

[in] Quick one: TGI for COc1cc2c(cc1O)C1(Cc3ccc4c(c3C1=O)OCO4)N(C)CC2 (stereo unspecified) ?
[out] > 100 µM

[in] Please report the recorded TGI for CC(=O)c1c(CO[N+](=O)[O-])n([O-])c2ccccc2[n+]1=O .
[out] > 100 µM

[in] Query (compound): CCCN(CCC)c1ccc(/C=N/NC(=O)c2cccnc2)c(OC)c1 ; field requested: TGI
[out] 50.8 µM

[in] Entry under review: CCOC(=O)c1cc(-c2ccccc2)[nH]c1N/N=C/c1ccc(Cl)cc1 . Reported TGI?
[out] > 100 µM

[in] Query (compound): CN(C)c1nncc2n[nH]nc12 ; field requested: TGI
[out] > 100 µM

[in] What value of TGI has been reported for the following compound? CCN(CC)C(=S)SCN1C(=O)c2ccccc2S1(=O)=O
[out] > 100 µM

[in] Endpoint output: TGI of NS(=O)(=O)NCCNc1nonc1C(=Nc1ccc(F)c(Br)c1)NO . Value?
[out] > 100 µM

[in] What value of TGI has been recorded for this entry: O=C(O)[C@H](Cc1ccccc1)NCCN1CCC[C@H]1C(=O)O
[out] > 100 µM

[in] Need TGI, item CC1=C(C(=O)Nc2cc(Cl)c3[nH]ncc3c2)C(c2ccc(C(F)(F)F)cc2)CC(=O)N1 (stereo unspecified)
[out] > 25 µM

[in] Looking for the measured TGI of O=C(CCc1ccccc1)n1cccc1CO , can you help?
[out] > 100 µM

[in] Quick one: TGI for COC(=O)C1=C(C)NC(C)=C(C(=O)OC)C1c1ccc(N=O)cc1 ?
[out] 44.7 µM

[in] Bench note: what TGI did CCc1ccc(C(=Nc2ccc(N(C)C(=O)CN3CCN(C)CC3)cc2)c2c(O)[nH]c3ccc(C(=O)OC)cc23)cc1 show?
[out] 2.68 µM

[in] If you can, please state the reported TGI value of [N-]=[N+]=NCCCn1c2c(c3ccc([N+](=O)[O-])cc3c1=O)C(=O)c1cc(F)ccc1-2 .
[out] 3.08 µM

[in] Suppose we examine the compound Cn1c2ccccc2c(=O)c2cccc(C(=O)NCC(=O)O)c21 ; what TGI value has been reported?
[out] > 100 µM

[in] So what does the record say about TGI for O=[N+]([O-])c1cc(C(F)(F)F)ccc1Sc1ccc(C(F)(F)F)cc1[N+](=O)[O-] ?
[out] > 100 µM

[in] Which TGI is listed for CCOc1ccccc1-c1nc2c(s1)C(=O)c1ccccc1C2=O ?
[out] 63.9 µM

[in] I am curious: what TGI value has been reported for COC(=O)[C@H]1COC(=O)N1 ?
[out] > 100 µM

[in] What value of TGI has been reported for the following compound? CC1(C)N=C(N)N=C(N)N1c1cccc(C(=O)Nc2ccc(S(=O)(=O)F)cc2)c1
[out] > 100 µM

[in] Looking for the measured TGI of CCOC(=O)C#Cc1c(C(=O)OCC)nnn1Cc1ccc([N+](=O)[O-])cc1 , can you help?
[out] 7.65 µM

[in] If you can, please state the reported TGI value of Cc1ccc(OCC2OC(n3cnc4c(Cl)nc(Cl)nc43)CC2Oc2ccc(C)cc2)cc1 (stereo unspecified) .
[out] 4.53 µM

###

Please respond with reported TGI for every item in the list.
System: DU-145 prostate
ASSAY_TEXT: NCI tumour cell line growth inhibition, 48 h
Enter your answer as a number in µM; do not include the unit.

[in] Looking for the measured TGI of O=c1cc(N=Nc2ccc(Cl)c(Cl)c2)[nH]c(=O)[nH]1 , can you help?
[out] 9.19

[in] Would you mind telling me what TGI value was observed for N#Cc1cc(S(=O)(=O)Nc2nnc(-c3ccccc3)c(-c3ccccc3)n2)c(SCc2ccccc2)cc1Cl ?
[out] 41.6

[in] Reported TGI, compound O=C1C=CC(=O)N1c1cccc(N2C(=O)C=CC2=O)c1 : ____
[out] 22.8

[in] # get_value(readout='TGI', item= NS(=O)(=O)c1ccc(N(/C=C/C(=O)C(F)(F)F)Cc2ccc(Cl)cc2)cc1 )
[out] 66

###

Test system: OVCAR-5 ovarian
ASSAY_TEXT: NCI tumour cell line growth inhibition, 48 h
PARAMETER_MEASURED: TGI

[in] GET /values?readout=TGI&system=OVCAR-5 ovarian&item= COC(=O)C(Br)C1CCc2ccccc21 (stereo not given)
[out] > 100 µM

[in] Give recorded TGI with OVCAR-5 ovarian for the following compound: CC(=O)O[C@H](C[C@H](C(C)C)N(C)C(=O)[C@@H](NC(=O)[C@H]1CCCN1C)C(C)C)c1nc(C(=O)N[C@@H](Cc2ccccc2)C[C@H](C)C(=O)O)c(C)s1
[out] > 16.7 µM

[in] Lab note: need TGI for CN(C)c1ccc(/C=C2\N=C(N/N=C/c3ccccc3O)NC2=O)cc1 on OVCAR-5 ovarian, anyone have it?
[out] > 100 µM

[in] API: value(readout= TGI, system= OVCAR-5 ovarian, query= CSc1nc2c(c(N3CCOCC3)n1)C(O)n1c(nc3ccccc31)S2 (stereo not given) )
[out] > 100 µM

[in] Given the entry COC1(OC)C=CC2C1C1C=CC2C1(OC)OC (stereo not given) , what TGI was observed with OVCAR-5 ovarian?
[out] > 100 µM

###

Test system: SNB-19 CNS
ASSAY_TEXT: NCI tumour cell line growth inhibition, 48 h
Assignment: determine reported TGI for the given compounds.

[in] Given CCc1ccc(C(=Nc2ccc(N(C)C(=O)CN3CCN(C)CC3)cc2)c2c(O)[nH]c3ccc(C(=O)OC)cc23)cc1 , state its recorded TGI.
[out] 2.09 µM

[in] May I ask what TGI has been recorded for O=C(CCc1ccccc1)n1cccc1CO ?
[out] > 100 µM

[in] I'd like to know its TGI. The compound in question is COc1ccc(NC(=O)C(C)Oc2ccc(OCC3CCCCC3)cc2)cc1 (centres undefined)
[out] > 100 µM

[in] // lookup TGI for CC(C)C[C@H](NC(=O)[C@H](Cc1ccc(F)cc1)NC(=O)c1ccccn1)B(O)O
[out] > 33.4 µM

[in] Field request: TGI | item: O=C1C2CCN(CC2)C1(CO)CO
[out] > 100 µM

[in] # input compound: COC(=O)[C@H]1COC(=O)N1 ; wanted: its TGI
[out] > 100 µM

[in] Query (compound): O=C1C2C(C(=O)N1c1ccccc1)C1([N+](=O)[O-])C=C3c4ccccc4N(C(=O)c4ccccc4)C32C2C(=O)N(c3ccccc3)C(=O)C21 (centres undefined) ; field requested: TGI
[out] > 100 µM

[in] Given the entry COc1cccc(Nc2nc(N)nc(N)c2N)c1 , report its measured TGI.
[out] > 100 µM

[in] Sample COc1cc2c(cc1OC)CC1c3cc(OC)c(OC)cc3CCN1CC2 (centres undefined) — what was its TGI?
[out] 76.2 µM

###

Test system: M14 melanoma
ASSAY_TEXT: NCI tumour cell line growth inhibition, 48 h
Where a SMILES comes first, the peptide text is derived from it. [ ]: non-standard residue; d: D form. ξ: configuration not given here. ξLac(3-iPr) = CC(C)CC(O)C(=O)O; NMeV = CN[CH](C(=O)O)C(C)C; NMeA = CN[CH](C)C(=O)O; βAla = NCCC(=O)O
PARAMETER_MEASURED: TGI

[in] Given the entry O=C(NO)[C@@H](Cc1ccccc1)NS(=O)(=O)c1ccc(-c2ccccc2)cc1 , report its measured TGI.
[out] > 25 µM

[in] Which TGI is reported for this molecule? O=C(N/N=C/c1ccc([N+](=O)[O-])cc1)Nc1ccc(Br)cc1
[out] > 100 µM

[in] Returns the measured TGI for the input molecule. Input: O=S1(=O)OCCOS(=O)(=O)C1Cc1cccc2ccccc12
[out] 54.9 µM

[in] Which TGI is reported for this molecule? C=CCN1/C(=C2\SC(=S)N(c3ccc(C)cc3)C2=O)Sc2c1nc[nH]c2=O
[out] > 100 µM

[in] I am curious: what TGI value has been reported for CC1(c2ccc(Cl)s2)CC(c2ccc(Cl)s2)=C(C#N)C(=C(C#N)C#N)N1 (stereo unspecified) ?
[out] 36.4 µM

[in] Entry c1ccc(C(=NCCC2CNc3ccccc32)c2ccccc2)cc1 (stereo unspecified) has what TGI?
[out] > 100 µM

[in] Which TGI reading was recorded for the molecule COc1cc2c(cc1OC)CC1c3cc(OC)c(OC)cc3CCN1CC2 (stereo unspecified) ?
[out] > 100 µM

[in] Data request, read-out TGI, for CSc1nc2c(c(N3CCOCC3)n1)C(O)n1c(nc3ccccc31)S2 (stereo unspecified)
[out] > 100 µM

[in] Endpoint output: TGI of O=[N+]([O-])c1cc(C(F)(F)F)ccc1Sc1ccc(C(F)(F)F)cc1[N+](=O)[O-] . Value?
[out] > 100 µM

[in] Request the reported TGI associated with O=C1c2ccccc2C(=O)c2c(Nc3cc4c5c(ccc6c7ccc8c9c(cc(Nc%10cccc%11c%10C(=O)c%10ccccc%10C%11=O)c(c3c56)c97)-c3ccccc3C8=O)C(=O)c3ccccc3-4)cccc21
[out] > 100 µM

[in] Look up TGI: CC1(C(=O)Nc2ccc3ccccc3c2)CC2(C)CC(C)(C1)C(O)NC2=O (stereo unspecified)
[out] > 100 µM

[in] Dear colleague, I am looking for the recorded TGI of the following molecule: CC(C(N)C(=O)NC(C(=O)O)C1OC(n2ccc(=O)[nH]c2=O)C(O)C1O)C(O)c1ccc(O)cn1 (stereo unspecified)
[out] > 100 µM

[in] Suppose we examine the molecule CC(=O)n1cc(OP(=O)(Oc2ccccc2)Oc2ccccc2)c2ccccc21 ; what TGI value has been reported?
[out] 52.1 µM

[in] Endpoint output: TGI of CC1=C(/C=C/C(C)=C/C=C/C(C)=C/C(=O)O)C(C)(C)CCC1 . Value?
[out] 71.5 µM

[in] Entry CCC(C)C1NC(=O)C2CCCN2C(=O)C(CC(C)C)OC(=O)CCNC(=O)C(C)N(C)C(=O)C(C(C)C)N(C)C1=O (stereo unspecified) (cyclo([ξLac(3-iPr)]PI[NMeV][NMeA][βAla]); configuration not given here) has what TGI?
[out] 6.49 µM

[in] I'd like to know its TGI. The molecule in question is O=C(c1ccccc1)C1C(c2ccccc2)N1S(=O)(=O)c1ccccc1 (stereo unspecified)
[out] > 100 µM

Each recorded value in this set is attributed to PubChem BioAssay (NCI).
